// data source = ChEMBL document CHEMBL5518166

Target: UniProtKB Q13002
Sequence (Q13002 whole entry, looked up): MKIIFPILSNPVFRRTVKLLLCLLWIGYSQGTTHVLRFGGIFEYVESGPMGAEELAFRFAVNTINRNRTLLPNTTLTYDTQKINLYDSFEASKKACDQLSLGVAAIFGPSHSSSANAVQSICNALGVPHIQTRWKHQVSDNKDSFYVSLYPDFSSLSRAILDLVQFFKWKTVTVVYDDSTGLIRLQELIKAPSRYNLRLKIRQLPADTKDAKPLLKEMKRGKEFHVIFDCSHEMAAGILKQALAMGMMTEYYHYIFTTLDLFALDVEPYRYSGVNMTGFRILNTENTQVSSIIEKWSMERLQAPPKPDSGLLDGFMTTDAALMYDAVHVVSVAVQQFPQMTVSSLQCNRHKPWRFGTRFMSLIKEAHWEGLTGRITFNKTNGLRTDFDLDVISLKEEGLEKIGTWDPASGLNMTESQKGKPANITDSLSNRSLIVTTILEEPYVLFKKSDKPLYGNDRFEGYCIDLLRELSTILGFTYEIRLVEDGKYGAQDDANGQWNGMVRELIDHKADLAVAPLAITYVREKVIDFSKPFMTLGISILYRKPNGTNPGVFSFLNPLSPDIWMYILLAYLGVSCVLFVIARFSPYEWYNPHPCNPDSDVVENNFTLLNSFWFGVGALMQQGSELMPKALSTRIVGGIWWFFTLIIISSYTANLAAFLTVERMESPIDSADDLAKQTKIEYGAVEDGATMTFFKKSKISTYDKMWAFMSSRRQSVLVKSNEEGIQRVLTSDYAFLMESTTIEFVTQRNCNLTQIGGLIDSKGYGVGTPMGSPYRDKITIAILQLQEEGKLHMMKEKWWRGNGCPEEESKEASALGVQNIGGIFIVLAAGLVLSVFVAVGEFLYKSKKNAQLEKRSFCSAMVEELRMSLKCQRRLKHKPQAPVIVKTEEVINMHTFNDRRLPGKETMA
Experiment: Positive allosteric modulation at kainate receptor in HEK293 cells expressing GluK2-Q2a assessed as glutamate induced calcium influx by measuring efficacy relative to control
Conditions: filed as positive allosteric modulator

| COMPOUND | MEASUREMENT TARGET | Efficacy |
| --- | --- | --- |
| O=S1(=O)NCN(C2CC2)c2cc(Cl)sc21 | UniProtKB Q13002 | 80% |
| CC1N(CC(F)F)c2cc(Cl)sc2S(=O)(=O)N1C (centres undefined) | UniProtKB Q13002 | 60% |
| C=CCN1CNS(=O)(=O)c2sc(Cl)cc21 | UniProtKB Q13002 | 80% |
| CCN1c2cc(Cl)sc2S(=O)(=O)N(C)C1C (centres undefined) | UniProtKB Q13002 | 60% |

----------
The reader will find reported pEC50 values listed item by item below.
Molecular target: Glutamate receptor ionotropic AMPA (Homo sapiens, UniProt P42261+P42262+P42263+P48058)
Test: Positive allosteric modulation at AMPAR in HEK293 cells expressing GluA2Qi subunit assessed as glutamate induced calcium influx
pEC50: −log10 of the molar value.
ATTRIBUTE MEASURED: pEC50

| COMPOUND | RESULT OPERATOR | VALUE REPORTED |
| --- | --- | --- |
| C=CCN1CNS(=O)(=O)c2sc(Cl)cc21 | = | 4.57 |
| CCN1c2cc(Cl)sc2S(=O)(=O)N(C)C1C (configuration not stated) | = | 4.61 |
| C=CCN1CN(C)S(=O)(=O)c2sc(Cl)cc21 | = | 4.12 |
| CN1CN(CC(F)F)c2cc(Cl)sc2S1(=O)=O | = | 4.40 |
| CN1C2CCCN2c2cc(Cl)sc2S1(=O)=O (configuration not stated) | < | 4.00 |
| CC1N(CC(F)F)c2cc(Cl)sc2S(=O)(=O)N1C (configuration not stated) | = | 4.50 |
| O=S1(=O)NCN(C2CC2)c2cc(Cl)sc21 | = | 5.33 |

----------
Biological target: Glutamate receptor ionotropic, AMPA (Rattus norvegicus) (UniProt P19491+P19492+P19493+P19490)
Assay: Positive allosteric modulation at AMPAR in rat Primary embryonic cortical cell assessed as concentration required for 2 fold increase in AMPA induced fluorescence by FlipR assay
Assay type: cell-based
Conditions: filed as positive allosteric modulator

| MOLECULE | EC, µM |
| --- | --- |
| C=CCN1CN(C)S(=O)(=O)c2sc(Cl)cc21 | 80.4 |
| C=CCN1CNS(=O)(=O)c2sc(Cl)cc21 | 18.5 |
| CN1C2CCCN2c2cc(Cl)sc2S1(=O)=O (centres undefined) | 40.1 |
| CCN1c2cc(Cl)sc2S(=O)(=O)N(C)C1C (centres undefined) | 6.4 |
